The following compounds are shown together with reported melting point values.

Suppose we examine the compound `O=C1CCC(=O)N1CC#CCn1ccnc1` ; what melting point value has been reported?
120 to 122 °C

Try this compound too: `O=C(N1CCN(c2ccccc2)CC1)N1CC(Oc2ccc(Br)cc2)C1`
160 to 161 °C

Try this compound too: `COCCOc1ccc(/C=C/C(=O)O)c(OC2CCCCC2)c1`
102 to 114 °C

Others:
Suppose we examine the compound O=C(NC(Cc1ccccc1[N+](=O)[O-])c1ccccc1)C1CCCCC1 (stereo not given) ; what melting point value has been reported?
210 to 212 °C

Try this compound too: `CCOC(=O)Cc1c(-c2ccc(C)cc2)nn2cccnc12`
69 to 71.5 °C

Try this compound too: `CCC(=C(c1ccc(I)cc1)c1ccc(OCCCCCl)cc1)c1ccccc1`
85 to 87 °C

Try this compound too: `Fc1ccc(C2CCC3(CC2)OCCO3)cc1`
51 to 53 °C

Try this compound too: `NC(=O)N1CC(Oc2ccc(Cl)c(Cl)c2)C1`
179 to 184 °C

Try this compound too: CCCN(CCCc1c[nH]c2c(Cl)cccc12)C1COc2c(F)ccc(C(N)=O)c2C1 (stereo not given)
145 to 154 °C

Try this compound too: `CCn1c([N+](=O)[O-])cnc1-c1nnc2ccc(N=CN(C)C)nn12`
198 to 200 °C

###

The following compounds are shown together with reported melting point values.

Reference set (3 entries):
Suppose we examine the compound COc1ccc(N2CCN(CCC(O)COc3ccc(F)cc3)CC2)cc1 (centres undefined) ; what melting point value has been reported?
78 to 80 °C

Try this compound too: NC1Cc2ccccc2N(C(=O)c2ccc(NC(=O)c3cc(Cl)cc(Cl)c3)cc2)C1 (centres undefined)
207 to 210 °C

Try this compound too: COc1ccc2c(c1)OCC1CN(C(=O)c3cccnc3)N=C21 (centres undefined)
145 to 147 °C

Now take the following compound into account.
Suppose we examine the compound `Cn1nc2c(-c3ccc(Cl)cc3Cl)cccc2c1C(=O)NCCO` ; what melting point value has been reported?
188 to 190 °C

###

The following compounds are shown together with reported melting point values.

Suppose we examine the compound `Oc1ccccc1-c1ccc(Cl)nn1` ; what melting point value has been reported?
188 °C

Try this compound too: `O=C(c1cc2cc(OCc3ccccc3)ccc2[nH]1)C1(c2ccc(Cl)cc2)CCCC1`
134 to 136 °C

Try this compound too: `COc1ccc(-c2cc(C(=O)O)cc3ccc4c(c23)OCO4)cc1`
264 to 266 °C

Try this compound too: `CN(C)c1ccc([N+](=O)[O-])c(CN)c1`
97 to 98 °C

Try this compound too: `CC(C)n1nc(-c2nc(-c3nc(-c4ccccc4)cs3)c(N)nc2-c2ccccc2)ccc1=O`
240 to 242 °C

Try this compound too: CCCOc1nc(N)c2ncn(C3CCCCO3)c2n1 (centres undefined)
138 to 140 °C

Try this compound too: `CC(C)OC(=O)n1cc(F)c(N)nc1=O`
217 to 219 °C

Try this compound too: `COc1ccc(Cl)c(C(=O)NCCc2ccc(S(=O)(=O)NC(=O)c3ccc(C(=O)NCCO)nc3)cc2)c1`
135 to 137 °C

###

metric: melting point

Reference set (4 entries):
Suppose we examine the compound `CC(=O)COc1ccc(Cl)cc1Cc1ccccc1` ; what melting point value has been reported?
65 to 66 °C

Try this compound too: CC1CN(C(=O)Nc2ccc(Cl)cc2)N=C1c1ccc(Cl)cc1 (stereo not given)
139 to 140 °C

Try this compound too: `O=C(O)CCN1C(=O)c2ccc(C(=O)O)cc2C1=O`
240 to 242 °C

Try this compound too: OC1C(COCC(F)(F)F)OC(n2cnc3c(Nc4ccc(F)cc4)ncnc32)C1O (stereo not given)
214 to 215 °C

Now take the following compound into account.
Suppose we examine the compound O=C1N(CCCCl)c2ccccc2C12COc1cc3c(cc12)OCO3 (stereo not given) ; what melting point value has been reported?
144 to 146 °C
